Cited source: patent US12338203B2

Overview of reported IC50 across a group of compounds:
- SYSTEM_NAME: human LPAR1 (Homo sapiens)
- Construct: expressed in transfected cells
- ASSAY: Test Example 1: antagonism against response of LPA-induced increase in intracellular Ca2+ concentration in RH7777 cells stably expressing human LPAR1
- Type: cell-based
- ASSAY_CONDITIONS: RH7777 cells stably expressing human LPAR1; Fluo-4 fluorescence, FDSS6000; read-out: IC50 value (concentration producing 50% antagonism against response of LPA-induced increase in intracellular Ca2+ concentration) (converted)
Entry rule: numbers only, all in nM.

| COMPOUND | IC50 [nM] |
| --- | --- |
| CCOc1c(C(C)=O)ccc([C@@H](C)N(CCO[C@@H](C)c2ccccc2)C(=O)NC2(C(=O)O)CC(OC)C2)c1C (stereo partly shown) [Example 4-131] | 10.3 |

// next item, IC50 requested
// query Quick one: IC50 for CCOc1cc(C(C)N(CCCCc2ccccc2)C(=O)NC2(C(=O)O)CC(OCC)C2)c(Cl)c(OCC)c1C(C)=O (stereo not shown) [Example 5-209] ?
// result 2.75

###

- SYSTEM_NAME: human LPAR1 (Homo sapiens, UniProt Q92633)
- Construct: expressed in transfected cells
- Sequence (Q92633 whole entry): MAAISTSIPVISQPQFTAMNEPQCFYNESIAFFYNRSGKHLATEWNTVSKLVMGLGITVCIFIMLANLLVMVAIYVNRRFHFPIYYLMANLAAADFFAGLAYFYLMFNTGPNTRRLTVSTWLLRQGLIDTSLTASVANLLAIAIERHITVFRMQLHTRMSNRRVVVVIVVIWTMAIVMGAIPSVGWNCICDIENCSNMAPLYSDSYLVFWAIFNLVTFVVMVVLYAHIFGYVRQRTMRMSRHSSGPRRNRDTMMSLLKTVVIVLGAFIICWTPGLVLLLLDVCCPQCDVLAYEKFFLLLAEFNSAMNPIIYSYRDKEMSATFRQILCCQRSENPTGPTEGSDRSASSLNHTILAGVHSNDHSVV
- ASSAY: Test Example 1: antagonism against response of LPA-induced increase in intracellular Ca2+ concentration in RH7777 cells stably expressing human LPAR1
- Type: cell-based
- ASSAY_CONDITIONS: RH7777 cells stably expressing human LPAR1; Fluo-4 fluorescence, FDSS6000; read-out: IC50 value (concentration producing 50% antagonism against response of LPA-induced increase in intracellular Ca2+ concentration) (converted)
# Lookup of reported IC50 keyed by entry
Quick note: give the figure in nM, leave out the unit.

Some solved cases for reference:
| COMPOUND | SYSTEM_NAME | QUANTITY_UNIT | OBS_VALUE |
| --- | --- | --- | --- |
| CCOc1cc(C(CO)N(CCCCc2ccccc2)C(=O)NC2(C(=O)O)CC(F)(F)C2)cc(OCC)c1C (stereo not shown) [Example 3-5] | human LPAR1 (Homo sapiens, UniProt Q92633) | nM | 4.88 |
| COc1cc(C(C)N(CCO[C@@H](C)c2ccccc2)C(=O)NC2(C(=O)O)CCOCC2)c(C)c(OC)c1C1CC1 (stereo partly shown) [Example 5-181] | human LPAR1 (Homo sapiens, UniProt Q92633) | nM | 3.51 |
| CCOc1cc([C@@H](C)N(CCCC(F)(F)c2ccccc2)C(=O)NC2(C(=O)O)CC2)cc(OCC)c1C(C)=O [Example 4-45] | human LPAR1 (Homo sapiens, UniProt Q92633) | nM | 1.59 |
| CCOC1CC(NC(=O)N(CCOC(C)c2ccccc2)C(C)c2cc(OC)c(C3CC3)c(OC)c2C)(C(=O)O)C1 (stereo not shown) [Example 5-169] | human LPAR1 (Homo sapiens, UniProt Q92633) | nM | 7.97 |
| COc1cc(C(C)N(CCO[C@@H](C)c2ccccc2)C(=O)NC2(C(=O)O)CCC2)c(C)c(OC)c1C (stereo partly shown) [Example 5-140] | human LPAR1 (Homo sapiens, UniProt Q92633) | nM | 10.8 |
| CCOc1cc([C@@H](C)N(CCOCc2ccccc2)C(=O)NC2(C(=O)O)CC(OC)C2)c(C)c(OCC)c1C(C)=O (stereo partly shown) [Example 5-73] | human LPAR1 (Homo sapiens, UniProt Q92633) | nM | 1.42 |

Shifting focus to the compound that follows.
// query What does the data say about its IC50? Entry: CCOc1cc(C(C)N(CCCCc2ccccc2)C(=O)NC2(C(=O)O)CC(F)(F)C2)cc(OC)c1C (stereo not shown) [Example 1-68]
// result 3.78
